Test system: LOC_OS01G10900-cb004;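 note: purified Escherichia coli-expressed rice kinase domain construct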
ASSAY NAME: thermal shift delta Tm vs DMSO control; higher = stronger stabilization (binding)
TEST CONTEXT: 12.5 µM; protein concentration 2 µM
thermal shift delta Tm below 0.9 °C gives NO; thermal shift delta Tm at or above it gives YES.

COMPOUND | GROUP LABEL
Cc1nc2c(-c3cnc(N)nc3)nc(N3CCOCC3)nc2n1C(C)C | NO
COc1cc2ncnc(Nc3ccc(Oc4ccccc4)cc3C)c2cc1OC | NO
CCN1/C(=C/C(C)=O)Sc2ccc(OC)cc21 | NO
COc1ccc(S(=O)(=O)N(CCO)c2ccccc2CN(C)C/C=C/c2ccc(Cl)cc2)cc1 [KN-93 Phosphate] | NO
CC(C)Oc1ccc(-c2nn([C@@H](C)c3oc4ccc(F)cc4c(=O)c3-c3cccc(F)c3)c3ncnc(N)c23)cc1F | NO
COCC(=O)NC/C=C/c1ccc2ncnc(Nc3ccc(Oc4ccc(C)nc4)c(C)c3)c2c1 | NO
Cc1ccc2nc(NCCN)c3ncc(C)n3c2c1 | YES
COc1cc2ccc(=O)oc2cc1O | NO
COc1cccc(-n2c(=O)[nH]c3cc(Cl)n(-c4ccc(-c5cccc(OC)c5O)cc4)c3c2=O)c1 | NO
C[C@H](CN(C)C)Oc1nc(Nc2cc3cccc(Cl)c3cn2)cnc1C#N | NO
Cc1n[nH]c2ncc(C(=O)N3CCC[C@H]3c3ccc(Cl)cc3)cc12 | NO
CN1CCN(c2ccc3nc(-c4c(N)c5c(F)cccc5[nH]c4=O)[nH]c3c2)CC1 [Dovitinib (TKI-258, CHIR-258)] | YES
Cn1c2ccccc2c2c3c(c4c5ccccc5n(CCC#N)c4c21)CNC3=O | NO
O=C1NC(=O)C(c2cnc3ccccn23)=C1c1cn2c3c(cc(F)cc13)CN(C(=O)N1CCCCC1)CC2 | NO
CN(C)CCOc1ccc(-c2nc(-c3ccncc3)c(-c3ccc4c(c3)CC/C4=N\O)[nH]2)cc1 | YES
CNCc1ccc(-c2cc(-c3nc(-c4ccc(S(=O)(=O)C(C)C)cc4)cnc3N)on2)cc1 | YES
NC1(c2ccc(-c3nc4ccn5c(=O)[nH]nc5c4cc3-c3ccccc3)cc2)CCC1 | NO
CCCCCCCCCCCCCCCCOP(=O)([O-])OCC[N+](C)(C)C | NO
Nc1ncc(-c2ccnc(Nc3ccncc3)n2)c(CC2CC2)n1 | YES
c1ccc(-c2[nH]ncc2-c2ccnc3ccccc23)nc1 | NO
CCNC(=O)Nc1ccc(-c2nc3c(c(N4CCOC[C@@H]4C)n2)CCN(C2COC2)C3)cc1 | NO
O=C(c1ccc(Nc2nccc(-c3cc4ccccc4s3)n2)cc1)N1CCC(N2CCCC2)CC1 | YES
Nc1nccc(Oc2ccc(NC(=O)c3c[nH]cc(-c4ccc(F)cc4)c3=O)cc2F)c1Cl | YES
CO[C@H]1C[C@@H]2CC[C@@H](C)[C@@](O)(O2)C(=O)C(=O)N2CCCC[C@H]2C(=O)O[C@H]([C@H](C)C[C@@H]2CC[C@@H](OCCO)[C@H](OC)C2)CC(=O)[C@H](C)/C=C(\C)[C@@H](O)[C@@H](OC)C(=O)[C@H](C)C[C@H](C)/C=C/C=C/C=C/1C [Everolimus (RAD001)] | NO
Cc1ccccc1CN1C2=NCCN2C(=O)C2=C1CCN(Cc1ccccc1)C2 | NO
CCN(C)S(=O)(=O)Nc1ccc(F)c(C(=O)c2c[nH]c3ncc(-c4cnc(C5CC5)nc4)cc23)c1F | YES
